Values from the supplement of paper PMC9170038

test system: K4 kissing-loop RNA reporter; experiment: apparent KD of K4 kissing-loop reporter; higher = weaker reporter binding; conditions: Eterna round: R107; input ligand: tryptophan 2.4 mM;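 also: bound reporter read as fluorescence of individual clusters on recovered sequencing chips by microscopy, with normalized cluster intensities fitted with a binding model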
assay_readout: apparent KD of K4 kissing-loop reporter (µM)
Field format: number, assumed µM, no unit text.

Respond only with apparent KD of K4 kissing-loop reporter recorded for CCGUGGAGUGAUGUUCCACGUUCUACGGAUACCAGUUGUGCCAGCGGCCCUUGGCAGCCGCACCUUGCAGUGAUGUUGUGAGGCU [Same State Theophylline A Gf 6] 0.198

Continuing:
# return recorded apparent KD of K4 kissing-loop reporter for entry UGGAGUUGACGAAAAGUCAACUCCUGGGAAGGAGCGGACGAAAGUCCAGGUAGGUCGCCCACUACCAGUGAUGUUGGUACCUAAA 0.206

Please supply the value of reported apparent KD of K4 kissing-loop reporter for the item AAAGAGUCCUGAGCCGAAGAAGAAGGCGGACGAGGACCGGUACGGCCGCCACUCGAAAGGAGUGCGGCUGAGUGAUGUUUGGCCG [Tryptophan A (C-G optomized)] 0.268

Return reported apparent KD of K4 kissing-loop reporter. Input sequence: CCUAUCUCUUACGAUACCAGUCAAUGAUAUUUUAUCAAUGCCCUCACCGAGUGAUGUUCGGACCCUUGGCAGCGUAUGGGAUAGG [kjnjmullin] 0.188

Determine from records and report apparent KD of K4 kissing-loop reporter for GGCGGCCGCGCGAAAGCGCGGCCGGCCGAUACCAGCGCGCCGGCGCGCCCUUGGCAGCGGCGCCGAGUGAUGUUCGGCCUGCCGU [#2 Same State - Theophylline A Attempt #12 (HarryS)] 0.125

Please give the documented apparent KD of K4 kissing-loop reporter of CCGAUACAUUAUUCUACGGCCGAGAGUGAUACCAGCCGUAUUUGUGGCCCUUGGCAGCGCAGAUGCAGUGAUGUUGCAUACUUGU [Same State Theophylline A GF 20] 0.0635

---

test system: MS2 coat protein; assay: apparent KD of MS2 coat protein; designed switch direction (-1 OFF switch, 1 ON switch): -1; higher = weaker reporter binding; details: Eterna round: R95; input ligand: none
Binary call on apparent KD of MS2 coat protein: MET from 30 nM upward, NOT MET beneath that.

Reported apparent KD of MS2 coat protein at or above 30 nM? GCUUGGCGAGGAUAUACAUGAGGAUCACCCAUGUGAGAGAAAUAAGUGAGGAAGAAAAGUAGAAGGCGCUGAGG [Mat - Exclusion 3 - Mod of Salish D59] (puzzle: Exclusion 3) MET

Okay, now this sequence:
Tell me whether apparent KD of MS2 coat protein is at least 30 nM here: CAGUACUGCAGGCUUCGGGACAUGAGGAUCACCCAUGUUCGUCUUAUUGAUCUAGGUACGCUGACGUACCUAGAUCU [JL-sv1-2.16 Brourd mod] (puzzle: Sensor v3, turn-off variant 1) NOT MET

---

Each entry below carries its recorded apparent KD of MS2 coat protein.
system: MS2 coat protein; assay: apparent KD of MS2 coat protein; designed switch direction (-1 OFF switch, 1 ON switch): 1; higher = weaker reporter binding; conditions: input ligand: microRNA oligo, concentration not stated
Give the value, in units of µM, as a plain number.

Worked examples follow.
Give the reported value of apparent KD of MS2 coat protein for this record: GGAAUAUUUACAGGAUAUGUUUUGUUAAGUCGAGCAGAAGGGUAGAUGUCUUACACGGUUUGUUACAUGAGGAUCACCCAUGUC [SameState NG1 #16] (Eterna round: R96, puzzle: Same State NG 1) 0.0803

Name the recorded apparent KD of MS2 coat protein of the sequence listed here: GUUACAUGAGGAUCACCCAUGUAUGUGUGGGAGUAAGUGUCUUAGGAUAUCUAUUAGUUAAAUUAAGAGAAGGAAGAUUGUUGU [JMF's solution 15] (Eterna round: R96, puzzle: Same State NG 3) 0.0914

Give the reported value of apparent KD of MS2 coat protein for this record: CGUCCGGCCUGAGCUGGACGGAGGCAUGUACAUGAGGAUCACCCAUGUUCAUGUGCAGGCUUUUUGCUCGUCUUGUG [JL-shm-2.07 JL mod] (Eterna round: R96, puzzle: Sensor for hsa-mir-208a) 0.0106

Specify reported apparent KD of MS2 coat protein for the sequence shown: CGGGAAAUCGUAGGAUAUCUAGGAUAUGAACGAGGAUCACCCGAGCAGCAUCAGCGCAUCAGAGGAGAGAAGGACGAUGAUGCG [pwkr ssNG2 2F5 2FMN.17] (Eterna round: R96, puzzle: Same State NG 2) 0.273

Provide one value: measured apparent KD of MS2 coat protein of GCUGCAAUAAACGCCUACAUGAGGAUCACCCAUGUAUGUAGGCAGGAUAUCGUAUGCAAAGCAUACGAGAAGGGCCGUAGUAGC [Mat - Same State NG 3 - JL Mod - D36] (Eterna round: R96, puzzle: Same State NG 3) 0.0444

Quickly give me recorded apparent KD of MS2 coat protein for GCUAGGAAAGAAGCCAACAUGAGGAUCACCCAUGUAUGUUGGUAGGAUAUCGUUUGCAAAGCAAACGAGAAGGGCUAACCUAGC [Mat - Same State NG 3 - JL Mod - D73] (Eterna round: R96, puzzle: Same State NG 3) 0.203

For the sequence GGACGUCAAUCUCCUAAUUAAACAUGAGGAUCACCCAUGUCACAGGAUAUGAGUCCGAUUAGGACUCAGAAGGGUGAGACGUCC [Fiskers NG3ss - 49] (Eterna round: R96, puzzle: Same State NG 3) , report apparent KD of MS2 coat protein. 0.0172

Please report apparent KD of MS2 coat protein for the following sequence: AUUUUUAAUGCAGGAUAUGAUUAACAUGAGGAUCACCCAUGUGGUGUUGUGAGUAAGGAGAGUGAUCAGAAGGGCAUUUUUUUA [JMF's solution 89] (Eterna round: R96, puzzle: Same State NG 2) 0.554

Then this sequence:
Read the entry GUGGUGUAGAUACAGGAUAUGUUGCUCGUAACAUGAGGAUCACCCAUGUAUCUAUGAGAAUAAAUGCAGAAGGGUGCACACCACU [Mat - Same State 2 - Mod of UCT - D74] (Eterna round: R96, puzzle: Same State 2) and write its reported apparent KD of MS2 coat protein. 0.197
